The values you see were collected from ChEMBL document CHEMBL1149654.

- system-tested: Calcitonin-gene-related peptide receptor, CALCRL/RAMP1 (Homo sapiens, UniProt O60894+Q16602)
- Sequence (O60894 whole entry): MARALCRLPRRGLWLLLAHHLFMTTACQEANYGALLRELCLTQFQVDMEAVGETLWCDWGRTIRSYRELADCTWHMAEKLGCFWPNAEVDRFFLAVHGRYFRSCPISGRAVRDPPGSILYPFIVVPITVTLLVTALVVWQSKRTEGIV
- Sequence (Q16602 whole entry): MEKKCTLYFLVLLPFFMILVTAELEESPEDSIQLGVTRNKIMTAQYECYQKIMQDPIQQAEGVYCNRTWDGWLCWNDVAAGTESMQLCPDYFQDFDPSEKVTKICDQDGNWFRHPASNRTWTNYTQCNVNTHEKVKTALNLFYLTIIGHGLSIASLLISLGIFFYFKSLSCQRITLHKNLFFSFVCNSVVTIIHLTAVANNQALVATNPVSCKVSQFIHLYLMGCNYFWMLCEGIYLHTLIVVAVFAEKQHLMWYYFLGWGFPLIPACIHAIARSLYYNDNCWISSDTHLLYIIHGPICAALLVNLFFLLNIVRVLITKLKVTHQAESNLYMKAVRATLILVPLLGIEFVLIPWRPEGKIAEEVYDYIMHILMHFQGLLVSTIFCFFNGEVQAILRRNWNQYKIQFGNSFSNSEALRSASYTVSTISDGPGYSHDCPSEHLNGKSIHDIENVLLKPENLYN
- assay-protocol: Displacement of [125I]CGRP from human CL receptor in RAMP1 membranes
pKi: −log10 of the molar value.
recorded-endpoint: pKi

>>> print(df.to_string())
                                   compound  recorded_endpoint  endpoint_value
0  O=C(N[C@@H]1CC[C@@H](c2ccccc2)CN(CC2CC2)C1=O)N1CCC(n2nc(-c3ccccc3)[nH]c2=O)CC1                pKi            7.54

[1] CC(C)(C)OC(=O)CN1C(=O)C(NC(=O)N2CCC(N3Cc4ccccc4NC3=O)CC2)CCCC1c1ccccc1 (racemic; 13)
[2] O=C(NC1CCC(c2ccccc2)CN(CC2CC2)C1=O)N1CCC(N2Cc3ccccc3NC2=O)CC1 (racemic; 18)
Which item exceeds the other in pKi, 1 or 2 ? Write down the label of the entry you select. 2
(2: 7.51, 1: 5.70)

---

- assay-protocol: Bioavailability in rat at 10 mg/kg, po
- Format: ADME, organism-based
- condition-description: in vivo
recorded-endpoint: bioavailability (%)
Unit % implied. Number only.

Give its bioavailability value. Item: O=C(N[C@@H]1CC[C@@H](c2ccccc2)CN(CC2CC2)C1=O)N1CCC(n2cc(-c3ccccc3)[nH]c2=O)CC1 27

---

- system-tested: Calcitonin-gene-related peptide receptor, CALCRL/RAMP1 (Homo sapiens, UniProt O60894+Q16602)
- assay-protocol: Antagonist activity at human CGRP receptor in E10 cells assessed as inhibition of cAMP production
pIC50: −log10 of the molar value.
recorded-endpoint: pIC50

As a guide, the following entries are already answered.
>>> df
                                   compound  endpoint_value
0  O=C(N[C@@H]1CCCCN(CC2CC2)C1=O)N1CCC(N2Cc3ccccc3NC2=O)CC1            5.62
1  O=C(NC1CC(c2ccccc2)CCN(CC2CC2)C1=O)N1CCC(n2cc(-c3ccccc3)[nH]c2=O)CC1 (racemic; 30)            6.85
2  O=C(NC1CC(c2ccccc2)CCN(CC2CC2)C1=O)N1CCC(n2nc(-c3ccccc3)[nH]c2=O)CC1 (racemic; 27)            5.42

[I] CC(C)(C)OC(=O)CN1C(=O)[C@@H](NC(=O)N2CCC(N3Cc4ccccc4NC3=O)CC2)CCC[C@H]1c1ccccc1
[II] CC(C)(C)OC(=O)CN1C(=O)C(NC(=O)N2CCC(N3Cc4ccccc4NC3=O)CC2)CCCC1c1ccccc1 (racemic; 13)
Which item exceeds the other in pIC50, I or II ? Write down the label of the entry you select. I

---

- system-tested: Calcitonin-gene-related peptide receptor, CALCRL/RAMP1 (Homo sapiens, UniProt O60894+Q16602)
- assay-protocol: Antagonist activity at human CGRP receptor in E10 cells assessed as inhibition of cAMP production
pIC50: −log10 of the molar value.
recorded-endpoint: pIC50

                                   compound  endpoint_value
0  O=C(N[C@@H]1CC[C@@H](c2ccccc2)CN(CC2CC2)C1=O)N1CCC(n2nc(-c3ccccc3)[nH]c2=O)CC1            7.35
1  CC(C)N1C(=O)C(NC(=O)N2CCC(N3Cc4ccccc4NC3=O)CC2)CCc2ccccc21 (stereo not given)            5.51
2  O=C(N[C@H]1CC[C@H](c2ccccc2)CN(CC2CC2)C1=O)N1CCC(N2Cc3ccccc3NC2=O)CC1            5.18
3  O=C(N[C@@H]1CC[C@@H](c2ccccc2)CN(CC2CC2)C1=O)N1CCC(N2CCc3ccccc3NC2=O)CC1            7.49
4  O=C(NC1CCC(c2ccccc2)CN(CC2CC2)C1=O)N1CCC(N2Cc3ccccc3NC2=O)CC1 (racemic; 18)            7.27

[A] O=C(N[C@@H]1CC[C@@H](c2ccccc2)CN(CC2CC2)C1=O)N1CCC(N2Cc3ccccc3NC2=O)CC1
[B] O=C(N[C@@H]1CCC[C@H](c2ccccc2)N(CC2CC2)C1=O)N1CCC(N2Cc3ccccc3NC2=O)CC1
[C] O=C(NC1CCC(c2ccccc2)CN(CC2CC2)C1=O)N1CCC(N2Cc3ccccc3NC2=O)CC1 (racemic; 17)
[D] O=C(NC1CC(c2ccccc2)CCN(CC2CC2)C1=O)N1CCC(n2cc(-c3ccccc3)[nH]c2=O)CC1 (racemic; 29)
[E] O=C(N[C@@H]1CC[C@@H](c2ccccc2)CN(CC2CC2)C1=O)N1CCC(n2cc(-c3ccccc3)[nH]c2=O)CC1
Please list the entries, largest pIC50 first. Rank them, then answer with their labels in that order. E, A, D, B, C
(E: 8.40, A: 7.44, D: 6.88, B: 6.39, C: 6.11)

---

- system-tested: Calcitonin-gene-related peptide receptor, CALCRL/RAMP1 (Homo sapiens, UniProt O60894+Q16602)
- assay-protocol: Displacement of [125I]CGRP from human CL receptor in RAMP1 membranes
- Assay type: cell membranes
pKi: −log10 of the molar value.
recorded-endpoint: pKi

As a guide, the following entries are already answered.
>>> print(df.to_string())
                                   compound  endpoint_value
0  CC(C)N1C(=O)C(NC(=O)N2CCC(N3Cc4ccccc4NC3=O)CC2)CCc2ccccc21 (stereo not drawn)            5.43
1  O=C(NC1CC(c2ccccc2)CCN(CC2CC2)C1=O)N1CCC(n2cc(-c3ccccc3)[nH]c2=O)CC1 (racemic; 29)            7.46
2  O=C(NC1CC(c2ccccc2)CCN(CC2CC2)C1=O)N1CCC(n2nc(-c3ccccc3)[nH]c2=O)CC1 (racemic; 27)            6.26
3  O=C(N[C@H]1CCCCN(Cc2ccccc2)C1=O)N1CCC(N2Cc3ccccc3NC2=O)CC1            4.95

[P] O=C(N[C@@H]1CCC[C@H](c2ccccc2)N(CC2CC2)C1=O)N1CCC(N2Cc3ccccc3NC2=O)CC1
[Q] O=C(NC1CC(c2ccccc2)CCN(CC2CC2)C1=O)N1CCC(n2nc(-c3ccccc3)[nH]c2=O)CC1 (racemic; 28)
[R] CC(C)(C)OC(=O)CN1C(=O)C(NC(=O)N2CCC(N3Cc4ccccc4NC3=O)CC2)CCCC1c1ccccc1 (racemic; 12)
Please list the entries, largest pKi first. Rank them, then answer with their labels in that order. Q, P, R
(Q: 6.58, P: 6.16, R: 4.77)

---

- system-tested: Calcitonin-gene-related peptide receptor, CALCRL/RAMP1 (Homo sapiens, UniProt O60894+Q16602)
- assay-protocol: Displacement of [125I]CGRP from human CL receptor in RAMP1 membranes
recorded-endpoint: Ki (nM)

>>> df
                                   molecule  recorded_endpoint   u  endpoint_value
0  CC(C)N1C(=O)[C@H](NC(=O)N2CCC(N3Cc4ccccc4NC3=O)CC2)N=C(c2ccccc2)c2ccccc21                 Ki  nM              55
1  O=C(N[C@@H]1CC[C@@H](c2ccccc2)CN(CC2CC2)C1=O)N1CCC(N2CCc3ccccc3NC2=O)CC1                 Ki  nM              29
2  CC(C)(C)OC(=O)CN1C(=O)[C@H](NC(=O)N2CCC(N3Cc4ccccc4NC3=O)CC2)CCC[C@@H]1c1ccccc1                 Ki  nM             934
3  O=C(NC1CC(c2ccccc2)CCN(CC2CC2)C1=O)N1CCC(n2cc(-c3ccccc3)[nH]c2=O)CC1 (racemic; 30)                 Ki  nM              17

[a] O=C(N[C@@H]1CCCCN(Cc2ccccc2)C1=O)N1CCC(N2Cc3ccccc3NC2=O)CC1
[b] O=C(N[C@H]1CC[C@H](c2ccccc2)CN(CC2CC2)C1=O)N1CCC(N2Cc3ccccc3NC2=O)CC1
Which item exceeds the other in Ki, a or b ? Write down the label of the entry you select. b

[A] O=C(N[C@@H]1CC[C@@H](c2ccccc2)CN(CC2CC2)C1=O)N1CCC(n2cc(-c3ccccc3)[nH]c2=O)CC1
[B] O=C(N[C@@H]1CC[C@@H](c2ccccc2)CN(CC2CC2)C1=O)N1CCC(N2Cc3ccccc3NC2=O)CC1
[C] O=C(N[C@@H]1CCCCN(CC2CC2)C1=O)N1CCC(N2Cc3ccccc3NC2=O)CC1
Please list the entries, largest Ki first. Rank them, then answer with their labels in that order. C, B, A
(C: 7800 nM, B: 25 nM, A: 2 nM)
